For each record, write down the corresponding EC50.
System: Dirofilaria immitis microfilariae
Test: In vitro assay 3: Dirofilaria immitis microfilariae (DIROIM L1), motility
Settings: 72 h, read-out: EC50 (reduction of motility), 72 h incubation

// below: answered compounds
COc1cc(F)c(-c2cccc3c(N4CCOCC4)c(C(=O)N[C@H]4CCOc5ccccc54)cnc23)cc1F [Example 230]
< 1 µg/mL
CNc1c(C(=O)N[C@H]2CCOc3ccccc32)cnc2c(-c3cc(Cl)cc(Cl)c3)cccc12 [Example 24]
< 0.1 µg/mL
CN(C)c1c(C(=O)NC2CCOc3ccc(Br)cc32)cnc2c(-c3cc(Cl)cc(Cl)c3)cccc12 (stereo not shown) [Example 580]
< 1 µg/mL
C[C@H]1CN(c2c(C(=O)N[C@H]3CCOc4ccccc43)cnc3c(-c4cc(Cl)cc(Cl)c4)cccc23)CCO1 [Example 290]
< 0.1 µg/mL
CC(C)c1c(C(=O)N[C@H]2CCOc3ccccc32)cnc2c(-c3cccc(C(F)(F)F)c3F)cccc12 [Example 408]
< 0.1 µg/mL

Quick request: EC50 for each listed item, please.
1. CN(C)C(=O)c1c(C(=O)N[C@H]2CCOc3ccccc32)cnc2c(-c3cc(Cl)cc(Cl)c3)cccc12 [Example 585]
2. CN(C)c1c(C(=O)N[C@H]2CCOc3ccccc32)cnc2c(-c3cccc(Cl)c3Cl)c(F)ccc12 [Example 330]

1: < 1 µg/mL; 2: < 0.1 µg/mL
